meta.source: paper PMC8523698

Molecular target: CYP2D6 (Homo sapiens)
Sequence (P10635 whole entry): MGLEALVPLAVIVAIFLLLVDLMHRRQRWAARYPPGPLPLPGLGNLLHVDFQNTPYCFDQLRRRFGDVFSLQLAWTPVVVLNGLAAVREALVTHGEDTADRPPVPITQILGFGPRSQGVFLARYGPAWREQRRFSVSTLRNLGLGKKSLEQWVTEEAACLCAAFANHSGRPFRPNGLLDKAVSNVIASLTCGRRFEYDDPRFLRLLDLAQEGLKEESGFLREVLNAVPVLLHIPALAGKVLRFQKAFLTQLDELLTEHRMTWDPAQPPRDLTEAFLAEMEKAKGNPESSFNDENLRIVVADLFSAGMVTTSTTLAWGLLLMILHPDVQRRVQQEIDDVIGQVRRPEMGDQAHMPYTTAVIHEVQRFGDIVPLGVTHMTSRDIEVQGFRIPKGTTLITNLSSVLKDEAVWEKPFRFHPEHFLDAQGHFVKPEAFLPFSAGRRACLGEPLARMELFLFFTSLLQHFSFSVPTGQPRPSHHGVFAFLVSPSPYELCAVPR
Assay: Reversible CYP inhibition in human liver microsomes
Conditions: human, microsomes, pH 7.4, Percent of Control Activity, CYP 2D6, 93.5 µM, Zero-Minute Preincubation
quantity_name: activity at 93.5 µM (%)

{"substance_smiles": "COc1cccc2[nH]c(C(=O)N[C@@H](CC(C)C)C(=O)N[C@@H](C[C@@H]3CCNC3=O)C(=O)CO)cc12", "units_of_measure": "%", "result_number": 91.9}

* * *

Target: CYP2D6 (Homo sapiens)
Assay: Reversible CYP inhibition in human liver microsomes
Details: human, microsomes, pH 7.4, Percent of Control Activity, CYP 2D6, 43.8 µM, 30-Minute Preincubation
quantity_name: activity at 43.8 µM (%)

{"molecule": "COc1cccc2[nH]c(C(=O)N[C@@H](CC(C)C)C(=O)N[C@@H](C[C@@H]3CCNC3=O)C(=O)CO)cc12 [PF-00835231]", "units_of_measure": "%", "result_number": 119}
